Overview of reported IC50 across a group of compounds:
Sequence of the target: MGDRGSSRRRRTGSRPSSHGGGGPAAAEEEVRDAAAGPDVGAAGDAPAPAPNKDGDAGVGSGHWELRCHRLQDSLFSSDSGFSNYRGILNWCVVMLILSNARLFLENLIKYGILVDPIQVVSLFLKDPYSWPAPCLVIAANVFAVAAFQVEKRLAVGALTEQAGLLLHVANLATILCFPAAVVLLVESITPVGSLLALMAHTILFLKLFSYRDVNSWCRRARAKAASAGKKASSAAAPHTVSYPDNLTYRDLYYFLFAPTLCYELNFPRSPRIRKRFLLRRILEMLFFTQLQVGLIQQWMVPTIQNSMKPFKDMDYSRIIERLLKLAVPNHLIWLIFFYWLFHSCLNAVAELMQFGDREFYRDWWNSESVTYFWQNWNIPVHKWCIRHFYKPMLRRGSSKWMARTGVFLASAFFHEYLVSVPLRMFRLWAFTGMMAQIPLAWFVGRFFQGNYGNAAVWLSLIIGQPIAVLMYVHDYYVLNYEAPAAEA

Below, 5 compounds whose answers are already recorded.
# GIVEN_SMILES, IC50
data = [
    ("CC(C)N(NC(=O)c1ccc(OCCN2CCOCC2)cc1)C(=O)/C=C/c1cn(C(=O)OC(C)(C)C)c2ccccc12", "> 100 µM"),
    ("CC(C)N(NC(=O)c1ccccn1)C(=O)/C=C/c1cn(C(=O)OC(C)(C)C)c2ccccc12", "> 100 µM"),
    ("Cc1ccc2c(/C=C/C(=O)N(NC(=O)c3cccc(F)c3)C(C)C)cn(C(=O)OC(C)(C)C)c2c1", "> 100 µM"),
    ("CC(C)N(NC(=O)c1cccc(OCCN2CCOCC2)c1)C(=O)/C=C/c1cn(C(=O)OC(C)(C)C)c2ccccc12", "> 100 µM"),
    ("CC(C)N(NC(=O)c1cccc(O)c1)C(=O)/C=C/c1cn(C(=O)OC(C)(C)C)c2ccccc12", "> 100 µM"),
]

--- query ---
For the compound CC(C)N(NC(=O)c1cccc(OCC(=O)O)c1)C(=O)/C=C/c1cn(C(=O)OC(C)(C)C)c2ccccc12 , what IC50 is on record? > 100 µM

* * *

Molecular target: human DGAT2 (Homo sapiens, UniProt Q96PD7)
Construct: made in house; host or cells: sf9 insect cells
Sequence (Q96PD7 1-388): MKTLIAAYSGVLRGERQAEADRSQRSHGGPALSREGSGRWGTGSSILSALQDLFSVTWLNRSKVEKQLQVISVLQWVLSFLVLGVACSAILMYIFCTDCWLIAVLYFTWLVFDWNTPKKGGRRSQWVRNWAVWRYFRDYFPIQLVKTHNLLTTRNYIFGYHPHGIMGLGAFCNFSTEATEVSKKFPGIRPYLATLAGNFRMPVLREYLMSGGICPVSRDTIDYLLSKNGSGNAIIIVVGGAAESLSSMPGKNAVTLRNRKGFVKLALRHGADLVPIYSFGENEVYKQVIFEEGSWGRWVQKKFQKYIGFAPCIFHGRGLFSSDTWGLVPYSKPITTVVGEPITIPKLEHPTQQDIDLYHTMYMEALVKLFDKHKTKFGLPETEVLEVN
Assay: DGAT enzyme inhibition test, hDGAT2 enzyme from sf9 insect cells (DGAT2 selectivity)
Type: biochemical
Conditions: 10 μM; enzyme from sf9 cells overexpressing hDGAT2; read-out: hDGAT-2 (sf9) inhibition rate(%)at 10 μM
QUANTITY_MEASURED: inhibition at 10 µM

Some solved entries appear below for comparison.
# GIVEN_SMILES, VALUE_OBSERVED
rows = [
    ("CC(C)N(NC(=O)c1ccc(OCCN2CCOCC2)cc1)C(=O)/C=C/c1cn(C(=O)OC(C)(C)C)c2ccccc12", "< 0%"),
    ("CC(C)N(NC(=O)c1ccccn1)C(=O)/C=C/c1cn(C(=O)OC(C)(C)C)c2ccccc12", "< 0%"),
]

Proceeding to the next compound to report its inhibition at 10 µM.
For CC(C)N(NC(=O)c1cccc(F)c1)C(=O)/C=C/c1cn(C(=O)OC(C)(C)C)c2cc(F)ccc12 , what is its reported inhibition at 10 µM? < 0%

Each recorded value in this set is attributed to patent US8906952B2.
